meta.source: ChEMBL document CHEMBL1149293

As a worked illustration, we turn to IC50 data collected for Proto-oncogene tyrosine-protein kinase Src (Homo sapiens, UniProt P12931).

COc1cc(Nc2c(C#N)cnc3cc(-c4ccccc4N4CCN(C)CC4)sc23)c(Cl)cc1Cl | > 10 µM

Moving on to another molecule below.
Problem: Return the recorded IC50 value; entry: COc1cc(Nc2c(C#N)cnc3c(-c4ccc(CN5CCOCC5)cc4)csc23)c(Cl)cc1Cl
Result: > 10 µM
